Biological target: CYP2C19 (Homo sapiens, UniProt P33261)
Sequence (P33261 whole entry): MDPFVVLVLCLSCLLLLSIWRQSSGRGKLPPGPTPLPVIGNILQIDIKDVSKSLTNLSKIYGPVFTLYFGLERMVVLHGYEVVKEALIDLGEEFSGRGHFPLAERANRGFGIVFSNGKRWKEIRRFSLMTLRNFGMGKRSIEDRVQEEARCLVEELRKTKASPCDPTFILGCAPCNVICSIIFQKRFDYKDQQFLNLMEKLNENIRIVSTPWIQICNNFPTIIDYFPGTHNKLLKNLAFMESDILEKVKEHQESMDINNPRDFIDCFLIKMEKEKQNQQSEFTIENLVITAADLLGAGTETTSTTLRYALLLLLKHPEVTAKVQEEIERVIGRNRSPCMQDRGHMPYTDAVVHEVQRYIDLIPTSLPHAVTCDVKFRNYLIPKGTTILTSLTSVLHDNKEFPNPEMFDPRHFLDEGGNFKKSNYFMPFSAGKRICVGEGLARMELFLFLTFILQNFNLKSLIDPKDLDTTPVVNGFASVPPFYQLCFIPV
Test: Inhibition of CYP2C19 (unknown origin) at 1 uM relative to control
Type: ADME
Reported Endpoint: inhibition at 1 µM (%)
The reply should be a number in %, with the unit left off.

Find the measured inhibition at 1 µM: item "N#Cc1ccc(-c2ccc(C[C@@H](C#N)NC(=O)[C@@H]3C[C@@H]4CCC[C@@H]4N3)cc2)cc1" , target or system CYP2C19 (Homo sapiens, UniProt P33261). 17.1

* * *

Target: UniProt P53634
Assay: Inhibition of human cathepsin C at 1 uM relative to control
inhibition below 90% gives Criterion not met; inhibition at or above it gives Criterion met.

hey, is inhibition for this one >= 90%? "N#Cc1ccc(-c2ccc(C[C@@H](C#N)NC(=O)C3(N)CCOCC3)cc2)cc1" Criterion met

Try this compound next: "N#Cc1ccc(-c2ccc(C[C@@H](C#N)NC(=O)[C@@H]3CN4CCC[C@H]4CN3)cc2)cc1" Criterion not met

Try this compound next: "N#Cc1ccc(-c2ccc(C[C@@H](C#N)NC(=O)[C@@H]3C[C@@H]4CCC[C@@H]4N3)cc2)cc1" Criterion met

Try this compound next: "N#Cc1ccc(-c2ccc(C[C@@H](C#N)NC(=O)[C@@H]3CC4(CCC4)CN3)cc2)cc1" Criterion met

Try this compound next: "N#Cc1ccc(-c2ccc(C[C@@H](C#N)NC(=O)[C@H]3COCCN3)cc2)cc1" Criterion not met

Try this compound next: "N#Cc1ccc(-c2ccc(C[C@@H](C#N)NC(=O)[C@@H]3CN4CCC[C@@H]4CN3)cc2)cc1" Criterion not met

Try this compound next: "N#Cc1ccc(-c2ccc(C[C@@H](C#N)NC(=O)[C@@H]3CC4(CCCCC4)CN3)cc2)cc1" Criterion not met

Try this compound next: "N#Cc1ccc(-c2ccc(C[C@@H](C#N)NC(=O)[C@H]3CN4CCC[C@@H]4CN3)cc2)cc1" Criterion not met

* * *

Target: CYP2C8 (Homo sapiens)
Sequence (P10632 whole entry): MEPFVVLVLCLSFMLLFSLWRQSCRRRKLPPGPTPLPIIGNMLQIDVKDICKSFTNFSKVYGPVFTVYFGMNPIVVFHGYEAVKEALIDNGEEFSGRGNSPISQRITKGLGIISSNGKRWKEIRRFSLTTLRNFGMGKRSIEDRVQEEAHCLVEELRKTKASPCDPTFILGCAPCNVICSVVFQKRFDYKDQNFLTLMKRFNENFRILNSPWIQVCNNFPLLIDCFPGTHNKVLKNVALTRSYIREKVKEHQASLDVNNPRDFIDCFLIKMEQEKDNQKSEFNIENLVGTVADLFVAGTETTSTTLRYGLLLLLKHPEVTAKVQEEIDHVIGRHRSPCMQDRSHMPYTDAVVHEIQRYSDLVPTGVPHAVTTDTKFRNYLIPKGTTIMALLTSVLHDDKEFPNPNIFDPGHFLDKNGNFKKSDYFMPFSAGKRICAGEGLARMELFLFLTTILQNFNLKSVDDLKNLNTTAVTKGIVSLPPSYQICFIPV
Test: Inhibition of CYP2C8 (unknown origin) at 1 uM relative to control
Assay type: ADME
Reported Endpoint: inhibition at 1 µM

Returns the measured inhibition at 1 µM for the input compound. Input: "N#Cc1ccc(-c2ccc(C[C@@H](C#N)NC(=O)[C@@H]3C[C@@H]4CCC[C@@H]4N3)cc2)cc1" 11.8%

* * *

Target: UniProtKB P08684
Sequence (P08684 whole entry): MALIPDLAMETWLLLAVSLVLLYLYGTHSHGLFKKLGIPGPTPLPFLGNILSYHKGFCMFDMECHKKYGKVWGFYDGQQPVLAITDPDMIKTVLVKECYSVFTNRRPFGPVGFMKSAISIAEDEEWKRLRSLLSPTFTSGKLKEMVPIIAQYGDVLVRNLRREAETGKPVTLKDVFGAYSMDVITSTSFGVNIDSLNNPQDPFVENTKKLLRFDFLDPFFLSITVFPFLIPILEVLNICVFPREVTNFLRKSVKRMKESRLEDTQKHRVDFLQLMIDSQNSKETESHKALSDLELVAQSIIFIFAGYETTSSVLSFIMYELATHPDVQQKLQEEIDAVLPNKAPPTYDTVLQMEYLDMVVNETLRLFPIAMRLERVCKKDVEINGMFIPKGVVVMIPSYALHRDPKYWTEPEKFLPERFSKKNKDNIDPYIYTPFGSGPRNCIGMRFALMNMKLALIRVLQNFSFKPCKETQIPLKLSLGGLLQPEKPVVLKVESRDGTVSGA
Test: Inhibition of CYP3A4 (unknown origin) at 10 uM relative to control
Format: ADME
Reported Endpoint: inhibition at 10 µM (%)
The reply should be a number in %, with the unit left off.

Returns the measured inhibition at 10 µM for the input compound. Input: "N#Cc1ccc(-c2ccc(C[C@@H](C#N)NC(=O)[C@@H]3C[C@@H]4CCC[C@@H]4N3)cc2)cc1" 33.8

* * *

Biological target: UniProt:P10632
Experiment: Inhibition of CYP2C8 (unknown origin) at 10 uM relative to control
Format: ADME
Reported Endpoint: inhibition at 10 µM (%)
The reply should be a number in %, with the unit left off.

Returns the measured inhibition at 10 µM for the input molecule. Input: "N#Cc1ccc(-c2ccc(C[C@@H](C#N)NC(=O)[C@@H]3C[C@@H]4CCC[C@@H]4N3)cc2)cc1" 40.1

* * *

Biological target: CYP2D6 (Homo sapiens)
Sequence (P10635 whole entry): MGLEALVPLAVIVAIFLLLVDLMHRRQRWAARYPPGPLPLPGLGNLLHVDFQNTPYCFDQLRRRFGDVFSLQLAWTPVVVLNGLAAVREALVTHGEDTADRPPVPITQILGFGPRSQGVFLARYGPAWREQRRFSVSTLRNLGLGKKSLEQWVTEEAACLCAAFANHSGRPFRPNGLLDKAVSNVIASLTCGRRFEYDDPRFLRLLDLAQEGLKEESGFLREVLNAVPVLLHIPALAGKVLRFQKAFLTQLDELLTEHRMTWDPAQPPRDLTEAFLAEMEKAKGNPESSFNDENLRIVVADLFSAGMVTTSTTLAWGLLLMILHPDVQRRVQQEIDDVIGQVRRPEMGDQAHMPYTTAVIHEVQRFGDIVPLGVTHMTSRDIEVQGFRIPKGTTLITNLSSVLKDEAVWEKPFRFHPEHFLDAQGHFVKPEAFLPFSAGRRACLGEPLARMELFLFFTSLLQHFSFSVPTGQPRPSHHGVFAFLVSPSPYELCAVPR
Assay: Inhibition of CYP2D6 (unknown origin) at 10 uM relative to control
Format: ADME
Reported Endpoint: inhibition at 10 µM (%)
The reply should be a number in %, with the unit left off.

Returns the measured inhibition at 10 µM for the input compound. Input: "N#Cc1ccc(-c2ccc(C[C@@H](C#N)NC(=O)[C@@H]3C[C@@H]4CCC[C@@H]4N3)cc2)cc1" 88.3

* * *

Biological target: Dipeptidyl peptidase 1 (Homo sapiens, UniProt P53634)
Sequence (P53634 25-134 limits assumed): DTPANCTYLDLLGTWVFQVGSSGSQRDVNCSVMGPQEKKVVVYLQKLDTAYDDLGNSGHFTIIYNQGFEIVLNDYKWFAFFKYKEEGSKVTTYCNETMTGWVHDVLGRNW
Sequence (P53634 231-394 limits assumed): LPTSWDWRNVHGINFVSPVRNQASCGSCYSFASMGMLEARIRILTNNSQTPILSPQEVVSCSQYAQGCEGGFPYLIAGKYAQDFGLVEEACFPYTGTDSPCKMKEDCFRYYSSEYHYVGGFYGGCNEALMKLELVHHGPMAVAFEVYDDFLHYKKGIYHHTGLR
Sequence (P53634 395-463 limits assumed): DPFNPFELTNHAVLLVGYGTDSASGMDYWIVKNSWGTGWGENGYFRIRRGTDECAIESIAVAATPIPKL
Assay: Inhibition of human cathepsin C at 1 uM relative to control
inhibition below 70% gives Condition not met; inhibition at or above it gives Condition met.

hey, is inhibition for this one >= 70%? "N#Cc1ccc(-c2ccc(C[C@@H](C#N)NC(=O)[C@@H](N)C34CC5CC(CC(O)(C5)C3)C4)cc2)cc1" Condition not met

Try this molecule next: "N#Cc1ccc(-c2ccc(C[C@@H](C#N)NC(=O)[C@@H]3COCCN3)cc2)cc1" Condition met

Try this molecule next: "N#Cc1ccc(-c2ccc(C[C@@H](C#N)NC(=O)[C@@H]3C[C@@H]4C[C@@H]4N3)cc2)cc1" Condition met

Try this molecule next: "N#Cc1ccc(-c2ccc(C[C@@H](C#N)NC(=O)[C@@H]3C[C@H]4CCC[C@@H]4N3)cc2)cc1" Condition not met

Try this molecule next: "N#Cc1ccc(-c2ccc(C[C@@H](C#N)NC(=O)[C@@H]3CC4(CC4)CN3)cc2)cc1" Condition met

Try this molecule next: "N#Cc1ccc(-c2ccc(C[C@@H](C#N)NC(=O)[C@@H]3C[C@H]4CCC[C@H]4N3)cc2)cc1" Condition met

Try this molecule next: "N#Cc1ccc(-c2ccc(C[C@@H](C#N)NC(=O)[C@@H]3CC4(CCCC4)CN3)cc2)cc1" Condition met

* * *

Assay: Aldehyde reactivity of the compound in 0.1M phosphate buffer assessed as compound remaining at pH 7.4 measured after 15 hrs in presence of propionaldehyde by HPLC-UV analysis
Assay type: ADME
Conditions: phosphate buffer with propionaldehyde, read-out: Stabilty
Reported Endpoint: remaining at 15 h (%)
The reply should be a number in %, with the unit left off.

Returns the measured remaining at 15 h for the input compound. Input: "N#Cc1ccc(-c2ccc(C[C@@H](C#N)NC(=O)[C@@H]3CC4(CCCC4)CN3)cc2)cc1" 0

Try this compound next: "N#Cc1ccc(-c2ccc(C[C@@H](C#N)NC(=O)[C@@H]3COCCN3)cc2)cc1" 48

Try this compound next: "N#Cc1ccc(-c2ccc(C[C@@H](C#N)NC(=O)[C@@H]3C[C@H]4CCC[C@H]4N3)cc2)cc1" 7

Try this compound next: "Cn1c(=O)oc2ccc(-c3ccc(C[C@@H](C#N)NC(=O)[C@@H]4CNCCCO4)cc3)cc21" 95

Try this compound next: "N#Cc1ccc(-c2ccc(C[C@@H](C#N)NC(=O)[C@@H]3C[C@H]4CCC[C@@H]4N3)cc2)cc1" 100

Try this compound next: "N#Cc1ccc(-c2ccc(C[C@@H](C#N)NC(=O)[C@@H]3C[C@@H]4CCC[C@@H]4N3)cc2)cc1" 97

* * *

Target: Dipeptidyl peptidase 1 (Homo sapiens)
Assay: Inhibition of cellular cathepsin C (unknown origin)
Field: pIC50. Provide a value for each of the compounds that follow.
In simple prose, pIC50 is minus the logarithm base ten of a concentration in moles per litre.

Returns the measured pIC50 for the input compound. Input: "N#Cc1ccc(-c2ccc(C[C@@H](C#N)NC(=O)[C@@H]3C[C@@H]4CCC[C@@H]4N3)cc2)cc1" 6.16

Try this compound next: "N#Cc1ccc(-c2ccc(C[C@@H](C#N)NC(=O)[C@@H]3CC4(CCCC4)CN3)cc2)cc1" 7.16

Try this compound next: N#Cc1ccc(-c2ccc(C[C@@H](C#N)NC(=O)[C@@H]3CC4CCCC[C@@H]4N3)cc2)cc1 (single isomer, unassigned) 5.77

Try this compound next: "N#Cc1ccc(-c2ccc(C[C@@H](C#N)NC(=O)[C@@H]3CC4(CCC4)CN3)cc2)cc1" 6.82

Try this compound next: "N#Cc1ccc(-c2ccc(C[C@@H](C#N)NC(=O)[C@@H]3COCCN3)cc2)cc1" 5.01

Try this compound next: "N#Cc1ccc(-c2ccc(C[C@@H](C#N)NC(=O)[C@@H]3C[C@H]4CCC[C@H]4N3)cc2)cc1" 7.10

* * *

Target: CYP1A2 (Homo sapiens)
Sequence (P05177 whole entry): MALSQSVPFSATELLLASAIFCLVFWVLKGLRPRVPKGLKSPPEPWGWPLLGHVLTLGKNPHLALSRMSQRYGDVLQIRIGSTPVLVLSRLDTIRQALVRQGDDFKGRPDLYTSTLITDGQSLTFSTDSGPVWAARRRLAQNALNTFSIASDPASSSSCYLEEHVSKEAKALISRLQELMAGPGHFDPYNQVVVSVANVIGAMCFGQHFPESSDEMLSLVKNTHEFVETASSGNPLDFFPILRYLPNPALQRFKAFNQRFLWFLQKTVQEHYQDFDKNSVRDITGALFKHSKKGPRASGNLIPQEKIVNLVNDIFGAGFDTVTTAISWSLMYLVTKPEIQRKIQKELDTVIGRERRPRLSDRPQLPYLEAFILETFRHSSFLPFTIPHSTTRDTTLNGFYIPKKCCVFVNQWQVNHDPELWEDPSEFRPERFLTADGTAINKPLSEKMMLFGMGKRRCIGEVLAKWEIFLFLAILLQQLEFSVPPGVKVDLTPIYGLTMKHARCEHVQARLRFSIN
Assay: Inhibition of CYP1A2 (unknown origin) at 10 uM relative to control
Type: ADME
Reported Endpoint: inhibition at 10 µM (%)
The reply should be a number in %, with the unit left off.

Find the measured inhibition at 10 µM: item "N#Cc1ccc(-c2ccc(C[C@@H](C#N)NC(=O)[C@@H]3C[C@@H]4CCC[C@@H]4N3)cc2)cc1" , target or system CYP1A2 (Homo sapiens). 43.7
